Assay: Permeability from basolateral to apical side of human Caco-2 cells
Type: ADME, cell-based
attribute measured: Papp B→A

compound CSc1nn(-c2ccccc2)c2cc(NC(=O)C3CCNCC3)ccc12 , Papp B→A observed: 9.47 ×10⁻⁶ cm/s

###

Test: Volume of distribution in Sprague-Dawley rat at 2 mg/kg, iv and 10 mg/kg, po
Type: ADME, organism-based
Conditions: in vivo
attribute measured: Vd (L/kg)
State the answer as a number, implicitly in L/kg.

Documented Vd of CSc1nn(-c2ccccc2)c2cc(NC(=O)C3CCNCC3)ccc12 : 8.53

###

Assay: Metabolic stability in rat liver microsomes after 10 mins
Type: ADME, Microsome
Details: read-out: Stability
attribute measured: remaining at 10 min (%)
Answer in %, number only, no unit symbol.

Summary for this compound, CSc1nn(-c2ccccc2)c2cc(NC(=O)C3CCNCC3)ccc12 : remaining at 10 min is 95
